Tested on: PPARg:RXRa IVT, anti-PPARg (NR concentration 270 nM, RXRa partner concentration 90 nM)
protocol-details: PBM binding z-score (relative to random genomic background probes); higher = stronger binding; sequences stand for … in GC…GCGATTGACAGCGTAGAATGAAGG
If the reported PBM binding z-score equals or exceeds 3, assign T. If not, assign F.

Request: Does the sequence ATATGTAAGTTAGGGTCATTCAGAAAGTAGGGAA have recorded PBM binding z-score that is 3 or more?
Response: F

Request: Please indicate if the recorded PBM binding z-score for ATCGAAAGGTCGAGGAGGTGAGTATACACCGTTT meets or exceeds 3.
Response: F

Request: Reported PBM binding z-score at or above 3? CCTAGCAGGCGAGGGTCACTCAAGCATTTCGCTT
Response: F

Request: Decide: PBM binding z-score of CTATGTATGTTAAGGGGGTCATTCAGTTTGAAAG >= 3?
Response: T

Request: Answer whether PBM binding z-score of GATAGTTGGTCAGTAAAAGGTCACACACCGGTCG is greater than or equal to 3.
Response: T

Request: Item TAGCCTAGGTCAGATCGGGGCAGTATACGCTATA with PBM binding z-score of 3 or above?
Response: F

Request: Item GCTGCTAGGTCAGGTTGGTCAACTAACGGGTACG with PBM binding z-score of 3 or above?
Response: F

Request: API: above_or_equal(metric=PBM binding z-score, cutoff=3) for item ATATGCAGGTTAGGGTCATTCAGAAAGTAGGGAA
Response: T

Request: Does the sequence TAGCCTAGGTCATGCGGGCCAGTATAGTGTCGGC have recorded PBM binding z-score that is 3 or more?
Response: F

Request: Say whether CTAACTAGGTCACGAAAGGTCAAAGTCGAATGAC shows PBM binding z-score of 3 or more.
Response: T

Request: Item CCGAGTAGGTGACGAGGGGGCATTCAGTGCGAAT with PBM binding z-score of 3 or above?
Response: T
